Data provenance is the RepoRT retention time repository (doi:10.3390/metabo9050085).

experiment: Phenomenex Kinetex C18, 150 × 2.1 mm, 1.7 µm, 30 °C, 0.3 mL/min; A: water + 0.1% formic acid; B: acetonitrile + 0.1% formic acid; gradient (min/%B) 0/2 14/100 17/100 17/2 25/2; conditions: stereoisomer not certain
Reported LC retention time values follow for various compounds
Give a bare numeral; the unit min is implied.

compound: CC12CCC3C(CC=C4CC(=O)CCC43C)C1CCC2=O (stereo not given)
LC retention time [min]: 11
--
compound: CC12CCC3C(CCC4=CC(=O)CCC43C)C1CCC2=O (stereo not given)
LC retention time [min]: 10.8

Q: Fill in the blank: the reported LC retention time of CC12CCC(=O)C=C1CCC1C2C(O)CC2(C=O)C1CCC2(O)C(=O)CO (stereo not given) is ____.
A: 6.76

Q: Same question, CC12CCC(O)C=C1CCC1C2CCC2(C)C(O)CCC12 (stereo not given) this time
A: 9.76

Q: Same question, CC12CCC(O)CC1=CCC1C2CCC2(C)C(C(=O)CO)CCC12 (stereo not given) this time
A: 10.5
